Quick reference for fold change among some compounds
protocolNotes: sensitizers of A549 cells to miR-34 induction, primary screen, imaging, A549 dox-inducible miR-34, nuclei and caspase counts (AID 1347080); further: test concentration not given here
details: A549 miR-34 inducible, Hoechst nuclei count, 48 h; active compounds read low; cell number ratio, induced over uninduced
// keep it numeric: no unit symbol after the value

Guide cases for fold change, answers given:
>  <compound>
Cc1c(N)nc(C(CC(N)=O)NCC(N)C(N)=O)nc1C(=O)NC(C(=O)NC(C)C(O)C(C)C(=O)NC(C(=O)NCCc1nc(-c2nc(C(=O)NCCC[S+](C)C)cs2)cs1)C(C)O)C(OC1OC(CO)C(O)C(O)[C@H]1OC1OC(CO)C(O)C(OC(N)=O)C1O)c1cnc[nH]1 (stereo not given in full)

>  <quantityName>
fold change

>  <endpointValue>
1.05

$$$$
>  <compound>
COP(=S)(OC)Oc1cc(Cl)c(Cl)cc1Cl

>  <quantityName>
fold change

>  <endpointValue>
0.898

$$$$
>  <compound>
COC(=O)[C@@H](N)CCCN/C(N)=N/[N+](=O)[O-]

>  <quantityName>
fold change

>  <endpointValue>
0.947

$$$$
>  <compound>
N[C@@H](Cn1oc(=O)[nH]c1=O)C(=O)O

>  <quantityName>
fold change

>  <endpointValue>
0.917

$$$$
>  <compound>
OOCCC/C=C/c1ccccc1

>  <quantityName>
fold change

>  <endpointValue>
0.959

$$$$
>  <compound>
CCCCC/C=C\C/C=C\C/C=C\C/C=C\CCCC(=O)NC

>  <quantityName>
fold change

>  <endpointValue>
0.953

$$$$
>  <compound>
COc1cc(N)c(Cl)cc1C(=O)NC1CN2CCC1CC2 (stereo not given)

>  <quantityName>
fold change

>  <endpointValue>
0.971

$$$$
>  <compound>
C[C@@H](N)Cc1cnc[nH]1

>  <quantityName>
fold change

>  <endpointValue>
1.02

$$$$

Looking for the measured fold change of COC(=O)CN1CN(c2ccccc2)C2(CCN(Cc3ccc4ccccc4c3)CC2)C1=O , can you help?
0.912

Looking for the measured fold change of CCCCCCCCCC(=O)OC[C@H](COP(=O)([O-])OCC[N+](C)(C)C)OC(=O)CCCCCCCCC , can you help?
0.907
